# SYSTEM NAME: T1, human Pals1 PDZ domain F318A mutant (human, UniProt Q8N3R9 251-335, F318A)
# T1 sequence: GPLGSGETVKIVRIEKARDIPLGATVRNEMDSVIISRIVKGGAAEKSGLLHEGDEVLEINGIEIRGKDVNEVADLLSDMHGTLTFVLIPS
# EXPERIMENTAL DETAILS: FP
Ends that are not written are not given here.
MEASUREMENT KIND: pKd
Answer as the number alone; pKd is minus log10 of concentration in mol/L.

Query :: Would you kindly share the measured pKd for RVEMWNLMPPPAMERLI (also: fluorescein label, position not given here, also called fluorescein-labelled Crb^17; Crumbs peptide (homologue 1)) [fluorescein-labelled human Crb1 peptide, residues 1390-1406 (Crb^17)] ?
Result :: 5.74

Recorded values, source paper PMC4356366.
